Target: T1, full-length beta-Catenin (Uniprot ID P35222) (Homo sapiens (Human), UniProt P35222 1-781)
T1 construct: The assay protocols call it full-length; also called B-Catenin; bCat
T1 sequence: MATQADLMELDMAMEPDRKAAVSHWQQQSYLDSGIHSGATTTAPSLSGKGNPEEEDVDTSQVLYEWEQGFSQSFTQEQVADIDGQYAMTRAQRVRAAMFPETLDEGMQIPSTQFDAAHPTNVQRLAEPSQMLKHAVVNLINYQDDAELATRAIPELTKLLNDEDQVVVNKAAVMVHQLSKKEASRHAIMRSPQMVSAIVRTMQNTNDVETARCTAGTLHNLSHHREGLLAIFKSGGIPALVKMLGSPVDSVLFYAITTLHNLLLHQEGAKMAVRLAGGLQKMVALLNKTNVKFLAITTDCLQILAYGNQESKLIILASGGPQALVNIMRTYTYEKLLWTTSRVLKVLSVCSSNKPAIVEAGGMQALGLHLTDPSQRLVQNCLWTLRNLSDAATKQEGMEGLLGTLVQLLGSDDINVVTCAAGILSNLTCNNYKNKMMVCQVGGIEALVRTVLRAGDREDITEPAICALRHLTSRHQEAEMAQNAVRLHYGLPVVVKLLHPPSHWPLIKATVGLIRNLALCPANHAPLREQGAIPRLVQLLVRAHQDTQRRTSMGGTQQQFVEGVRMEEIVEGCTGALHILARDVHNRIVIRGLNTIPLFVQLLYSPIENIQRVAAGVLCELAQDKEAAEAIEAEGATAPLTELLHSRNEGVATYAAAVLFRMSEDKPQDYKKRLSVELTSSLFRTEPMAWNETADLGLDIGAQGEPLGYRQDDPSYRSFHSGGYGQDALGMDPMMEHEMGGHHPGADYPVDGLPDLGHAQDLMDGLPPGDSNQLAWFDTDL
Assay: AlphaScreen competition; full-length beta-catenin with biotin-labelled TCF4 10-53 peptide as competitor
Starred links: 1 amine or outer side, 2 acyl side, 3 side chain; linkers in the order of their positions; H or OH if unused. Positions of bridges follow the written chain, without caps; N, C: chain ends. Non-standard residues stand in square brackets, D forms with d. Primed or numbered codes have the meaning given here. B5(17) = 2,2-bis(4-pentenyl)glycine = 2-amino-2-(pent-4-en-1-yl)hept-6-enoic acid, stitching residue, C=CCCCC(CCCC=C)(N[*:1])C(=O)[*:2]; B5(4) = 2,2-bis(4-pentenyl)glycine = 2-amino-2-(pent-4-en-1-yl)hept-6-enoic acid (stitching residue), C=CCCCC(CCCC=C)(N[*:1])C(=O)[*:2]; B5 = 2-amino-2-(pent-4-en-1-yl)hept-6-enoic acid, C=CCCCC(CCCC=C)(N[*:1])C(=O)[*:2]; Phe(3,4-F2) = N[C@@H](Cc1ccc(F)c(F)c1)C(=O)O; Phe(3-F) = N[C@@H](Cc1cccc(F)c1)C(=O)O; hTyr = N[C@@H](CCc1ccc(O)cc1)C(=O)O; αAllylPro = C=CC[C@@]1(C(=O)O)CCCN1; 2Pal = N[C@@H](Cc1ccccn1)C(=O)O; 3Pal = N[C@@H](Cc1cccnc1)C(=O)O; S8 = C=CCCCCCC[C@](C)(N)C(=O)O
Reported EC50 values are given for each entry in this list.
ASSAY_ENDPOINT: EC50 (nM)

| BINDER | ASSAY_ENDPOINT | SCALE_UNIT | VALUE_OBSERVED |
| --- | --- | --- | --- |
| Ac-[αAllylPro]DA[B5(17)]D[hTyr]AAFV[S8]FWQ-NH2 (staple 1-4, 4-11, Stapled (stitched) peptide; also called Ac-PL3-Asp-Ala-B5-Asp-hTyr-Ala-Ala-Phe-Val-S8-Phe-Trp-Gln-NH2) [I-273] | EC50 | nM | 1890 |
| Ac-[αAllylPro]DA[B5(4)]DYAAFV[S8]FWQ-NH2 (staple 1-4, 4-11, Stapled (stitched) peptide; also called Ac-PL3-Asp-Ala-B5-Asp-Tyr-Ala-Ala-Phe-Val-S8-Phe-Trp-Gln-NH2) [I-274] | EC50 | nM | 2350 |
| Ac-[αAllylPro]DA[B5(17)]D[2Pal]AAFV[S8]FWQ-NH2 (staple 1-4, 4-11, Stapled (stitched) peptide; also called Ac-PL3-Asp-Ala-B5-Asp-2PyrA-Ala-Ala-Phe-Val-S8-Phe-Trp-Gln-NH2) [I-270] | EC50 | nM | 835 |
| XDAXDDAAFVXFWQ (not fully specified; N-terminal Ac; PL3 at 1; B5 at 4; S8 at 11; 34FF at 12; C-terminal NH2; staples PL3(1)-B5(4) and B5(4)-S8(11) by olefin metathesis, Stapled (stitched) peptide; also called Ac-PL3-Asp-Ala-B5-Asp-Asp-Ala-Ala-Phe-Val-S8-34FF-Trp-Gln-NH2) [I-263] | EC50 | nM | 864 |
| Ac-[αAllylPro]DA[B5(4)]D[Phe(3-F)]AAFV[S8]FWQ-NH2 (staple 1-4, 4-11, Stapled (stitched) peptide; also called Ac-PL3-Asp-Ala-B5-Asp-3FF-Ala-Ala-Phe-Val-S8-Phe-Trp-Gln-NH2) [I-257] | EC50 | nM | 3810 |
| Ac-[αAllylPro]DA[B5(4)]DDAA[Phe(3-F)]V[S8]FWQ-NH2 (staple 1-4, 4-11; not fully specified; printed as Ac-PL3-Asp-Ala-B5-Asp-Asp-Ala-Ala-3FF-Val-S8-Phe-Trp-Gln-NH2, Stapled (stitched) peptide; also called Ac-PL3-Asp-Ala-B5-Asp-Asp-Ala-Ala-3FF-Val-S8-Phe-Trp-Gln-NH2) [I-264] | EC50 | nM | 364 |
| Ac-[αAllylPro]DA[B5(17)]D[3Pal]AAFV[S8]FWQ-NH2 (staple 1-4, 4-11, Stapled (stitched) peptide; also called Ac-PL3-Asp-Ala-B5-Asp-3PyrA-Ala-Ala-Phe-Val-S8-Phe-Trp-Gln-NH2) [I-271] | EC50 | nM | 788 |
| Ac-[αAllylPro]DA[B5(17)]DDAA[Phe(3,4-F2)]V[S8]FWQ-NH2 (staple 1-4, 4-11, Stapled (stitched) peptide; also called Ac-PL3-Asp-Ala-B5-Asp-Asp-Ala-Ala-34FF-Val-S8-Phe-Trp-Gln-NH2) [I-267] | EC50 | nM | 620 |
| Ac-[αAllylPro]DA[B5]D[Phe(3,4-F2)]AAFV[S8]FWQ-NH2 (staple 1-4, 4-11, Stapled (stitched) peptide; also called Ac-PL3-Asp-Ala-B5-Asp-34FF-Ala-Ala-Phe-Val-S8-Phe-Trp-Gln-NH2) [I-259] | EC50 | nM | 4180 |
